- Tested on: Caco‐2
- test protocol: Cell growth inhibition, protein content
- Type: cell-based
- condition set: Homo sapiens, Caco-2, 72 h, read-out: IC50 SRB
pIC50: −log10 of the molar value.
quantity name: pIC50

Study these solved cases before continuing.
O=C(/C=C(O)/C=C/c1cccnc1)/C=C/c1c[nH]c2ccccc12
4.99
COc1cc(/C=C/c2cc(/C=C/c3cccnc3)[nH]n2)ccc1O
4.73
COc1cc(/C=C/C(=O)/C=C(O)/C=C/c2c[nH]c3ccccc23)ccc1O
4.42

(a) COc1cc(/C=C/c2cc(/C=C/c3ccncc3)[nH]n2)ccc1O
(b) COc1cc(/C=C/C(=O)/C=C(O)/C=C/c2cccnc2)ccc1O
(c) COc1cc(/C=C/C(=O)/C=C(O)/C=C/c2ccc[nH]2)ccc1O
(d) O=C(/C=C(O)/C=C/c1cccs1)/C=C/c1c[nH]c2ccccc12
(e) COc1cccc2c1C(=O)c1c(O)c3c(c(O)c1C2=O)C[C@@](O)(C(=O)CO)C[C@@H]3O[C@H]1C[C@H](N)[C@H](O)[C@H](C)O1 [Dox, doxorubicin, reference compound]
Place the items in sequence of falling pIC50. Response field: labels, in requested order.
d, e, c, b, a
